molecular target: T1, CC2-LZ domain of NEMO (mouse CC2-LZ) (mouse, UniProt O88522 251-337, limits assumed); experiment: fluorescence polarization, labelled peptide fixed at 10 µM, CC2-LZ titrated
T1 construct: domain: CC2-LZ; The methods say that the mouse CC2-LZ was used in the fluorescence anisotropy assay; also called NOA; UBAN
T1 sequence (O88522 251-337 limits assumed): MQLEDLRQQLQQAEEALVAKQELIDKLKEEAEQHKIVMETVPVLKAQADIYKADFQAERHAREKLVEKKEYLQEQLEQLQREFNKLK
Bridges are numbered along the chain shown (N, C = ends). Where no end group is shown, it is not given here. [ ]: non-standard residue; d: D form. S5 = C=CCCC[C@](C)(N)C(=O)O; Aib = CC(C)(N)C(=O)O
Reported pKd is given for each of the following binders.
The scale used: pKd is minus the common logarithm of the concentration in molar units.

binder	pKd
Ac-CRQIKIWFQNRRMKWKKLKAQADIYK[S5]RFQ[S5]ERHAREK-NH2 (staple 27-31; also: N-terminal Cys thiol labelled with BODIPY or FITC (BODIPY FL maleimide), Stapled i,i+4 with N-terminal antennapedia) [A-UBI-SAHN A310-A314]	4.68

// switching to the query binder
Record request: pKd value, item CRQIKIWFQNRRMKWKKLK[Aib]Q[Aib]DIYK[Aib]RFQ[Aib]ERH[Aib]REK (also: N-terminal Cys labelled with BODIPY or FITC) [A-UBI-AIB]
4.62
